The values you see were collected from ChEMBL document CHEMBL1145212.

system.name: UniProt:P31652
Sequence (P31652 whole entry): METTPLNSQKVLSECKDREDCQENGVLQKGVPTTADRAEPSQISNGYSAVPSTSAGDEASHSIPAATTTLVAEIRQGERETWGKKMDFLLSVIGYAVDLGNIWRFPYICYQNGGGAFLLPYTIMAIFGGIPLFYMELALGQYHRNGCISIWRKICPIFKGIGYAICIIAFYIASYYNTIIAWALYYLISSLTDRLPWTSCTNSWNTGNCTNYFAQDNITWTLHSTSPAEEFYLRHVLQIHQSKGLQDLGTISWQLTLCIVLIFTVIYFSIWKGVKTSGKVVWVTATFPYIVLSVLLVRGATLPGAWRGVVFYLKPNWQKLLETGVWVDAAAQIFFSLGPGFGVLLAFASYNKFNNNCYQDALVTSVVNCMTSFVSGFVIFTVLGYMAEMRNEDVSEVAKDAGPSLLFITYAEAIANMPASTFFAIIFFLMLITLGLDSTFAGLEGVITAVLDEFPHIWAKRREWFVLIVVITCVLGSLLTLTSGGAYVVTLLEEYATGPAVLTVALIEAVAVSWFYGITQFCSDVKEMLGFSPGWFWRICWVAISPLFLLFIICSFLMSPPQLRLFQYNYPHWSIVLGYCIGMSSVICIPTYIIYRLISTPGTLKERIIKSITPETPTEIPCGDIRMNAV
assay.details: Specific binding of [18F]-AFA in rat striatum after citalopram treatment; n=3
Assay type: functional, tissue-based
measurement.conditions: tested as the 18F-labelled form
measured.property: Specific binding

- compound.string: "CN(C)Cc1ccccc1Sc1ccc(F)cc1N"
  Specific binding: "0.6 %ID/g"
- compound.string: "CN(C)Cc1ccccc1Sc1ccc(CF)cc1N"
  Specific binding: "0.52 %ID/g"
- compound.string: "CN(C)Cc1ccccc1Sc1ccc(CCF)cc1N"
  Specific binding: "0.5 %ID/g"

# next compound below
Problem: # input compound: CN(C)Cc1ccccc1Sc1ccc(CCCF)cc1N ; wanted: its Specific binding
Solution: 0.45 %ID/g
